- SYSTEM: Serine/threonine-protein kinase B-raf (Homo sapiens, UniProt P15056, V600E)
- Sequence (P15056 2-766 V600E limits assumed): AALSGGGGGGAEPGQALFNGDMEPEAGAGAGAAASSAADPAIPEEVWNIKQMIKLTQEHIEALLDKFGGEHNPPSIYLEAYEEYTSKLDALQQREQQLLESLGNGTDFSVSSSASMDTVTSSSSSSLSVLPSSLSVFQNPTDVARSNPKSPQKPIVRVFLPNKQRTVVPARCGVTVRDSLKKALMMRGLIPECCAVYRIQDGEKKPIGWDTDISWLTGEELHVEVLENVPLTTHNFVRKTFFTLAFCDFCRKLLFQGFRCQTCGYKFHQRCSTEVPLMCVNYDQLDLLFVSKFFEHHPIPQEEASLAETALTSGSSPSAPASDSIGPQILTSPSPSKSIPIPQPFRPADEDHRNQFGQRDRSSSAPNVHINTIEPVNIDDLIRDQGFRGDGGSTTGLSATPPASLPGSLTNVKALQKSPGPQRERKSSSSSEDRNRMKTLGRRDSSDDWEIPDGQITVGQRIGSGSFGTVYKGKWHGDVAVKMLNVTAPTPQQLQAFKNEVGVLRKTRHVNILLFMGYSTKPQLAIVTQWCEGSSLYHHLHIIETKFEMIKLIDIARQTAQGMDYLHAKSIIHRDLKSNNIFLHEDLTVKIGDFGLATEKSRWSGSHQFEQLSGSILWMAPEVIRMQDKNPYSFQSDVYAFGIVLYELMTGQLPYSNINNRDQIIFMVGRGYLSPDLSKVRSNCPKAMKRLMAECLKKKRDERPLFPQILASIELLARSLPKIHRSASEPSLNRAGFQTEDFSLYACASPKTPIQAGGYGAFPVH
- ASSAY_OVERVIEW: Inhibition of N-terminal 6X-His tagged human BRAF V600E mutant (433 to 726) by ELISA
PROPERTY: IC50 (nM)
The answer is to be given in nM; state only the numeric part.

# input Look up IC50 for this molecule: O=C1NC(=S)NC(=O)C1=Cc1ccc(-c2ccc3c(c2)OCO3)o1
# output 300

---

- SYSTEM: Serine/threonine-protein kinase B-raf (Homo sapiens, UniProt P15056, V600E)
- ASSAY_OVERVIEW: Inhibition of BRAF V600E mutant-mediated MEK phosphorylation in human HT-29 cells by Western blotting analysis
- Format: cell-based
PROPERTY: IC50

# input # returns recorded IC50 (system: Serine/threonine-protein kinase B-raf (Homo sapiens, UniProt P15056, V600E)) for O=C(Nc1cccc(Oc2ccc3nc(NC(=O)C4CCOCC4)cn3n2)c1)c1cccc(C(F)(F)F)c1
# output 3.8 µM

---

- SYSTEM: Serine/threonine-protein kinase B-raf (Homo sapiens, UniProt P15056, V600E)
- ASSAY_OVERVIEW: Inhibition of BRAF V600E mutant (unknown origin)
PROPERTY: IC50 (nM)
The answer is to be given in nM; state only the numeric part.

# input Look up IC50 for this compound: O=C(Nc1ccccc1)N(Cc1ccc(Br)cc1O)c1cc(-c2ccccc2)[nH]n1
# output 190

---

- SYSTEM: Serine/threonine-protein kinase B-raf (Homo sapiens)
- ASSAY_OVERVIEW: Inhibition of BRAF (unknown origin)
PROPERTY: pIC50
Reminder that pIC50 is minus the log10 of a molar concentration.

# input Look up pIC50 for this compound: O=C(Nc1cccc(Oc2ccc3nc(NC(=O)C4CCOCC4)cn3n2)c1)c1cccc(C(F)(F)F)c1
# output 7.37
